test: Decomposition rate: differential calorimetric curve (DSC), half value width; format: physicochemical; settings: DSC, 10° C./min, nitrogen atmosphere
Below: a set of entries, each annotated with reported Calorific value.
Report the figure in mJ/mg without appending any unit label.

These recorded examples may help you get a feel for the data.
## Task Query (compound): `CCCN1C(=CC=CC2=[N+](CCC)c3ccc([N+](=O)[O-])cc3C2(C)C)C(C)(C)c2c1ccc1ccccc21.[O-][Cl+3]([O-])([O-])[O-]` ; field requested: Calorific value
## Result 1827

## Task Query (compound): `CCN1C(=CC=CC2=[N+](CC)c3ccc([N+](=O)[O-])cc3C2(C)C)C(C)(C)c2c1ccc1ccccc21.[O-][Cl+3]([O-])([O-])[O-]` ; field requested: Calorific value
## Result 1826

## Task Query (compound): `CCCCN1C(=CC=CC2=[N+](CCCC)c3ccc([N+](=O)[O-])cc3C2(C)C)C(C)(C)c2c1ccc1ccccc21.[O-][Cl+3]([O-])([O-])[O-]` ; field requested: Calorific value
## Result 1663

Consider now this further compound.
## Task Query (compound): CCCCN1/C(=C/C=C/C2=[N+](CCCC)c3ccccc3C2(C)C)C(C)(C)c2c1ccc1ccccc21 [Chemical Formula 33, reference compound] ; field requested: Calorific value
## Result 1467

====

Below: a set of entries, each annotated with reported Decomposition initiating point.
assay: Decomposition rate: differential calorimetric curve (DSC), half value width; format: physicochemical; details: DSC, 10° C./min, nitrogen atmosphere
Report the figure in °C without appending any unit label.

These recorded examples may help you get a feel for the data.
## Task Query (molecule): `CCN1C(=CC=CC2=[N+](CC)c3ccc([N+](=O)[O-])cc3C2(C)C)C(C)(C)c2c1ccc1ccccc21.[O-][Cl+3]([O-])([O-])[O-]` ; field requested: Decomposition initiating point
## Result 295.8

## Task Query (molecule): CCCCN1/C(=C/C=C/C2=[N+](CCCC)c3ccccc3C2(C)C)C(C)(C)c2c1ccc1ccccc21 [Chemical Formula 33, reference compound] ; field requested: Decomposition initiating point
## Result 255.4

## Task Query (molecule): `CCCN1C(=CC=CC2=[N+](CCC)c3ccc([N+](=O)[O-])cc3C2(C)C)C(C)(C)c2c1ccc1ccccc21.[O-][Cl+3]([O-])([O-])[O-]` ; field requested: Decomposition initiating point
## Result 279.5

Continuing:
## Task Query (molecule): `CCCCN1C(=CC=CC2=[N+](CCCC)c3ccc([N+](=O)[O-])cc3C2(C)C)C(C)(C)c2c1ccc1ccccc21.[O-][Cl+3]([O-])([O-])[O-]` ; field requested: Decomposition initiating point
## Result 249.9
